molecular target: BCL6 BTB (Homo sapiens, UniProt P41182); construct: the tag was removed by HRV-3C protease treatment, generating a simpler BCL6 5–129 product; Thioredoxin (N, cleaved yes); 6His (N, cleaved yes); made in house; host or cells: E. coli BL21-AI; assay: Thermal shift assay (TSA); assay type: binding; details: measured at 200 and 400 µM compound; binder if ≥ 1 °C
Entries and their TSA Tm (thermal shift)

compound	TSA Tm (thermal shift)
CCC1=C(C(=O)OC)C(c2ccccc2F)n2ncnc2N1 (stereo not drawn)	0.5-2 ºC
Cn1c(=O)n(C)c2cc(Nc3cc(N4CCOCC4)ncn3)ccc21	0-0.5 ºC
COC(=O)C1=C(C)Nc2ncnn2C1c1ccc(C(=O)O)cc1 (stereo not drawn)	0.5-1 ºC
O=C(NCc1ccccn1)c1csc(Nc2ccccc2Cl)n1	1-2.5 ºC
CCCC1=C(C(=O)OCC)C(c2cccnc2)n2ncnc2N1 (stereo not drawn)	0.5-3 ºC
COc1cccc(CN(C)c2nc3c(cnn3C(C)(C)C)c(=O)[nH]2)c1	0 ºC
Cc1ccccc1C1CC(c2ccccc2)Nc2ncnn21 (stereo not drawn)	0-1 ºC
N#Cc1c(NCc2ccccc2)ccnc1Cl	1-2 ºC
Fc1ccc(C2CC(c3ccccc3Cl)Nc3ncnn32)cc1 (stereo not drawn)	0 ºC
N#Cc1c(C(F)(F)F)cc(-c2cccs2)nc1SC(C(=O)O)c1ccccc1 (stereo not drawn)	0-2.5 ºC
Fc1ccc(C2CC(c3cccc4ccccc34)n3ncnc3N2)cc1 (stereo not drawn)	0.5-2 ºC
CC(C)CCn1c(SCC(=O)Nc2ccccc2F)nc2nccnc2c1=O	0.5-1 ºC

Where these numbers come from: paper PMC9633773
